Recorded log10 of IC50, one value per entry.
TESTED_TARGET: V2 Receptor (Rattus norvegicus)
Construct: rat kidney plasma membrane preparations
Sequence (Q00788 whole entry): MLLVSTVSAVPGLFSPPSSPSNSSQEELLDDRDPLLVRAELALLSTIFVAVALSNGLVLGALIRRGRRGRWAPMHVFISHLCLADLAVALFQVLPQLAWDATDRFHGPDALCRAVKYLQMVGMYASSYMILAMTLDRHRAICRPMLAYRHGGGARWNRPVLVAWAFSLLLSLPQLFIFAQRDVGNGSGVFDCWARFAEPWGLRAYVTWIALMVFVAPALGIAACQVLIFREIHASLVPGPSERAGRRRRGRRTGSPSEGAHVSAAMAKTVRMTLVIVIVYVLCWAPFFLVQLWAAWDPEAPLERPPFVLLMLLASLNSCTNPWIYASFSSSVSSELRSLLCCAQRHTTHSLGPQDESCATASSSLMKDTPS
PROTOCOL_DETAILS: V2 Receptor Binding Assay ([3H]-Arg-vasopressin, rat kidney plasma membrane)
TEST_PARAMETERS: 4° C., pH 8.0
Counter-ions that a name gives are not always drawn.
Hi team, quick reminder: these entries are log10 of IC50 (nM).

**Query** Recorded log10 of IC50 for COc1cc(NC(=O)Cc2ccccc2C)ccc1C(=O)N1CCCC(O)c2cc(Cl)ccc21 (centres unmarked) [Test Compound 18] with V2 Receptor (Rattus norvegicus), please?
**Result** 0.60

**Query** Please answer likewise for Cc1ccccc1C(=O)Nc1ccc(C(=O)N2CCCC(OCC(=O)NC3CCN(C)CC3)c3cc(Cl)ccc32)c(C)c1 (centres unmarked) [Test Compound 59]
**Result** 0.95

**Query** Now consider COc1cc(NC(=O)c2ccccc2C)ccc1C(=O)N1CCCC(CN2CCN(C)CC2)c2cc(F)ccc21 (centres unmarked) [Test Compound 46] .
**Result** 0.95

**Query** Same read-out for COc1cc(NC(=O)c2ccccc2Br)ccc1C(=O)N1CCCC(CC(=O)N(C)C)c2cc(F)ccc21 (centres unmarked) [Test Compound 51] ?
**Result** 0.48

**Query** Please do the same for COc1cc(C(=O)N2CCCC(CC#N)c3cc(Cl)ccc32)ccc1NC(=O)c1ccccc1C (centres unmarked) [Test Compound 39] as well.
**Result** 1.15

**Query** Okay, and CN(C)C1CCCN(C(=O)c2ccc(NC(=O)c3ccccc3Cl)cc2Cl)c2ccc(O)cc21 (centres unmarked) [Test Compound 8] ?
**Result** 2.40

**Query** Same thing, different molecule: CCOC(=O)CNC(=O)COC1CCCN(C(=O)c2ccc(NC(=O)c3ccccc3C)cc2Cl)c2ccc(F)cc21 (centres unmarked) [Test Compound 21]
**Result** 0.78

**Query** Please answer likewise for COc1cc(NC(=O)c2ccccc2Cl)ccc1C(=O)N1CCCC(CC(=O)N2CCN(C)CC2)c2cc(Cl)ccc21 (centres unmarked) [Test Compound 44, hydrochloride]
**Result** 0.78

###

Measured log10(IC50) of individual entries
TESTED_TARGET: V1 Receptor (Rattus norvegicus)
PROTOCOL_DETAILS: V1 Receptor Binding Assay ([3H]-Arg-vasopressin, rat liver plasma membrane)
TEST_PARAMETERS: 37° C., 10 minutes, pH 8.0
Where a name gives a salt, the structure may show the parent alone.
Would you kindly interpret these values as log10 of IC50 expressed in nM?

COMPOUND	READOUT_NUMBER
CCOC(=O)CC1CCCN(C(=O)c2ccc(NC(=O)c3ccccc3C)cc2OC)c2ccc(Cl)cc21 (stereo not shown)	1.89

**Query** Would you mind telling me what log10(IC50) value was observed for COc1cc(NC(=O)c2ccccc2Cl)ccc1C(=O)N1CCCC(CC(=O)N2CCN(C)CC2)c2cc(Cl)ccc21 (stereo not shown) [Test Compound 44, hydrochloride] ?
**Result** 1.38

**Query** Now try COc1cc(C(=O)N2CCCC(CC#N)c3cc(Cl)ccc32)ccc1NC(=O)c1ccccc1C (stereo not shown) .
**Result** 1.64

###

TESTED_TARGET: V1 Receptor (Rattus norvegicus, UniProt P30560)
Sequence (P30560 whole entry): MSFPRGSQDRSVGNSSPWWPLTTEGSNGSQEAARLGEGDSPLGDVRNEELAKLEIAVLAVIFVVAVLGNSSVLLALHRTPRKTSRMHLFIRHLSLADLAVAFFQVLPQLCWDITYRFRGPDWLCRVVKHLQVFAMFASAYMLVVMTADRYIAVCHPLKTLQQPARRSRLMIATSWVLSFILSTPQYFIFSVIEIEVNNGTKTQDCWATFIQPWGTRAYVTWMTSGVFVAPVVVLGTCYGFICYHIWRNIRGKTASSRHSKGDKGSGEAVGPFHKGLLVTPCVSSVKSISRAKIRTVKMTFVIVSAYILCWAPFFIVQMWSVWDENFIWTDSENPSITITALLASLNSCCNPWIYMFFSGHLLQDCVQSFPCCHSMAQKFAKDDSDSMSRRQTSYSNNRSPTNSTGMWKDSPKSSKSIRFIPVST
PROTOCOL_DETAILS: V1 Receptor Binding Assay ([3H]-Arg-vasopressin, rat liver plasma membrane)
TEST_PARAMETERS: 37° C., 10 minutes, pH 8.0
Where a name gives a salt, the structure may show the parent alone.
ASSAY_METRIC: IC50 (nM)
Write the value in nM as a bare number.

Previously resolved entries follow.
MOLECULE	UNIT_SPEC	IC50
COc1cc(NC(=O)c2ccccc2C)ccc1C(=O)N1CCCC(OCCN2CCCC2)c2cc(Cl)ccc21 (stereo not drawn) [Test Compound 34, hydrochloride]	nM	9
COc1cc(C(=O)N2CCCC(CC(=O)NC3CCNCC3)c3cc(Cl)ccc32)ccc1NC(=O)c1ccccc1C (stereo not drawn) [Test Compound 30, hydrochloride]	nM	31

Now consider the entry below.
**Query** For the molecule shown here, Cc1ccccc1C(=O)Nc1ccc(C(=O)N2CCCC(OC(=O)[C@@H](N)C(C)C)c3cc(Cl)ccc32)c(C)c1 (single isomer, unassigned) [Test Compound 15, hydrochloride] , give the reported IC50.
**Result** 180
